- target_desc: human SPPL2a (Homo sapiens)
- Sequence (Q8TCT8 26-520): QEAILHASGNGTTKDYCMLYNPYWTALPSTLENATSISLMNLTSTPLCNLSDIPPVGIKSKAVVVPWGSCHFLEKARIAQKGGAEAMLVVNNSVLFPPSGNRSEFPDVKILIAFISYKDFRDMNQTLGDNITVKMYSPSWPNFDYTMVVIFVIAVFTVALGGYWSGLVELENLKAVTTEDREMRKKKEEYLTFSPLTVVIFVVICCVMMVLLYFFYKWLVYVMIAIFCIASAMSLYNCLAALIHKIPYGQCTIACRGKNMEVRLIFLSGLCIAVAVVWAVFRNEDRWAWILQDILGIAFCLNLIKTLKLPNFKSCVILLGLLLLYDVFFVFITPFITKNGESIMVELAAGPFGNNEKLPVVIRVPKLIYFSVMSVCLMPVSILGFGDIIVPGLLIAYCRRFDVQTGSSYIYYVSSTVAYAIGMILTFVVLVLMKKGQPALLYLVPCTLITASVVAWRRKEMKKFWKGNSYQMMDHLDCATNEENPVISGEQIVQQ
- assay_name: Sppl2a RGA (reporter gene assay) in HEK293 cells
- Type: cell-based
- Parameters: expressed in transfected cells; host or cells: HEK293 (transient)
- settings: NT-TNF-VP16-Gal4 substrate, Gal4-luciferase reporter, 24 h
pIC50: −log10 of the molar value.
parameter: pIC50

[[record]]
molecular_string = "COCc1nc(C)c(C(=O)NC[C@H](C(=O)N[C@@H]2C(=O)N3CCCN3Cc3ccccc32)C(F)(F)F)s1"
parameter = "pIC50"
recorded_value = 7.52

[[record]]
molecular_string = "C[C@H](CC(=O)Nc1cc(-c2ccco2)nn1C1CC1)C(=O)N[C@@H]1C(=O)N2CCCN2Cc2ccccc21"
parameter = "pIC50"
recorded_value = 7.55

[[record]]
molecular_string = "CC(C)C(=O)Nc1cc(NC(=O)C[C@H](C(=O)N[C@@H]2C(=O)N3CCCN3Cc3ccccc32)C2CCC2)n(C)n1"
parameter = "pIC50"
recorded_value = 7.96

[[record]]
molecular_string = "C[C@H](CC(=O)Nc1cc(NC(=O)c2cccc(F)c2F)nn1C)C(=O)N[C@@H]1C(=O)N2CCCN2Cc2ccccc21"
parameter = "pIC50"
recorded_value = 8.15

[[record]]
molecular_string = "CC[C@H](CNC(=O)c1sncc1C)C(=O)N[C@@H]1C(=O)N2CCCN2C(=O)c2ccccc21"
parameter = "pIC50"
recorded_value = 7.47


====

- target_desc: human SPPL2a (Homo sapiens)
- assay_name: Sppl2a RGA (reporter gene assay) in HEK293 cells
- Assay type: cell-based
- Set-up: expressed in transfected cells; host or cells: HEK293 (transient)
- settings: NT-TNF-VP16-Gal4 substrate, Gal4-luciferase reporter, 24 h
Catalogue of compounds with associated IC50
parameter: IC50 (nM)

[[record]]
compound = "CCOc1nc(C)c(C(=O)NC[C@@H](CC)C(=O)N[C@@H]2C(=O)N3CCCN3Cc3ccccc32)s1 [Example 53]"
parameter = "IC50"
unit_text = "nM"
recorded_value = 22

[[record]]
compound = "C[C@H](CC(=O)Nc1sc(-c2ccc(C(F)(F)F)nc2)nc1Cl)C(=O)N[C@@H]1C(=O)N2CCCN2Cc2ccccc21 [Example 108]"
parameter = "IC50"
unit_text = "nM"
recorded_value = 3

[[record]]
compound = "CC(C)NC(=O)c1cc(NC(=O)C[C@H](C(=O)N[C@@H]2C(=O)N3CCCN3Cc3ccccc32)C2CC2)n(C)n1 [Example 67]"
parameter = "IC50"
unit_text = "nM"
recorded_value = 5

[[record]]
compound = "C[C@H](Cc1nc2c(Cl)cccc2[nH]1)C(=O)N[C@@H]1C(=O)N2CCCN2Cc2ccccc21 [Example 115]"
parameter = "IC50"
unit_text = "nM"
recorded_value = 228

[[record]]
compound = "Cc1cc(-c2cc(NC(=O)C[C@@H](C)C(=O)N[C@@H]3C(=O)N4CCCN4Cc4ccccc43)n(C)n2)no1 [Example 80]"
parameter = "IC50"
unit_text = "nM"
recorded_value = 8

[[record]]
compound = "Cc1nc(C(=O)NC(C)C)sc1C(=O)NC[C@@H](C)C(=O)N[C@@H]1C(=O)N2CCCN2Cc2ccccc21 [Example 24]"
parameter = "IC50"
unit_text = "nM"
recorded_value = 33

[[record]]
compound = "C[C@H](CC(=O)Nc1sc(-c2cnn(C3COC3)c2)nc1Cl)C(=O)N[C@@H]1C(=O)N2CCCN2Cc2ccccc21 [Example 95]"
parameter = "IC50"
unit_text = "nM"
recorded_value = 23

[[record]]
compound = "Cc1cc(-c2nc(C)c(C(=O)NC[C@@H](C)C(=O)N[C@@H]3C(=O)N4CCCN4Cc4ccccc43)s2)on1 [Example 23]"
parameter = "IC50"
unit_text = "nM"
recorded_value = 21

[[record]]
compound = "COCC[C@H](CNC(=O)c1sc(-c2cc(C)no2)nc1C)C(=O)N[C@@H]1C(=O)N2CCCN2Cc2ccccc21 [Example 42]"
parameter = "IC50"
unit_text = "nM"
recorded_value = 27

[[record]]
compound = "CC[C@H](CNC(=O)c1scnc1C)C(=O)N[C@@H]1C(=O)N2CCCN2Cc2ccccc21 [Example 29]"
parameter = "IC50"
unit_text = "nM"
recorded_value = 84

